Origin of measurements: the METLIN SMRT retention time set (Domingo-Almenara et al. 2019)

Experiment summary: gradient 5% acetonitrile 3 min, to 50% in 2 min, to 85% in 15 min, held 3 min, 100 µL/min
Run parameters: column: Zorbax Extend-C18 2.1 x 50 mm; eluents: water / acetonitrile, 0.1% formic acid
Outcome measure: RP-LC retention time (s)
Answers are plain numbers, in s.

// sample CCCOc1nc2ccccc2nc1N1CCCC(C(=O)NCc2ccccc2C)C1 (stereo not given) , its RP-LC retention time was 1240

Reported RP-LC retention time ( COCC(=O)Nc1ccc2c(c1)Sc1ncccc1C(=O)N2C(C)C ) = 645

Lab note: COc1ccc(NC(=O)c2nc(N3CCSCC3)c3cnn(C)c3n2)cc1 gave RP-LC retention time of 814

Summary for this compound, O=C(CSc1ccc(NC(=O)c2cccs2)nn1)Nc1cccc(Cl)c1Cl : RP-LC retention time is 942

The reported value for Cc1ccsc1C(=O)NCC(=O)Nc1nc2ccccc2[nH]1 in terms of RP-LC retention time is 613

// for each compound in input: emit RP-LC retention time
1. Cc1cc(NC(=O)c2ccc(-c3cncnc3)nc2)ccc1Br
2. Cn1c(=O)n(CCN2CCOCC2)c(=O)c2c1nc1n2CCCN1C1CCCCC1
3. CCN(Cc1ccccc1)C(=O)CN1C(=O)CCc2cc(Br)ccc21
4. CCNC(=O)C1CCN(S(=O)(=O)c2cc(-c3noc(C)n3)cs2)CC1
5. COC(=O)c1ccc(CSc2ccc(NC(=O)c3cccs3)nn2)o1

1. 859
2. 627
3. 1000
4. 713
5. 820

Please supply RP-LC retention time for each of the following items, keeping them in order.
1. O=C(NCCCN1CCCCC1)C1CCCN(c2cnc3nccnc3c2)C1 (stereo not given)
2. CN(C(=O)Cc1nnc2cc(-c3nc(C4CC4)no3)ccn12)C1CCCCC1
3. CNS(=O)(=O)CCCOc1cccc2c1OC(C)(C)C2
4. O=C(CSc1nnc2sc3ccccc3n12)c1ccc(F)cc1
5. CCCN1C(=O)COc2ccc(-c3noc(C4CC(=O)N(c5ccc(C)c(C)c5)C4)n3)cc21 (stereo not given)
6. CCc1noc(NC(C)=O)c1-c1ccc(C)c(S(=O)(=O)Nc2ccc(C)cc2)c1
7. Cc1cc2c(=O)n(CC(=O)Nc3ccc(F)cc3C)ccc2s1

560
1010
776
778
1060
830
762

Fill in RP-LC retention time for each of the 3 compounds listed.
1. COc1ccc(-c2nnc(N3CCC(C(=O)NCC4CCCCC4)CC3)o2)cc1
2. O=C(Nc1cccc(-c2ccc(N3CCOCC3)nn2)c1)Nc1cc(F)ccc1F
3. CCCCCNC(=O)c1ccc2c(c1)CCCN2S(=O)(=O)CC

1: 887; 2: 738; 3: 896

---

What RP-LC retention time was measured for each of the following?
Experiment summary: gradient 5% acetonitrile 3 min, to 50% in 2 min, to 85% in 15 min, held 3 min, 100 µL/min
Run parameters: column: Zorbax Extend-C18 2.1 x 50 mm; eluents: water / acetonitrile, 0.1% formic acid
Answers are plain numbers, in s.

Recorded RP-LC retention time, per entry:
The molecule listed as CCOC(=O)c1ccc(OC(=O)CCCCCN=C(N)N)cc1 shows RP-LC retention time equal to 750

Form field RP-LC retention time, entry COC(=O)c1ccccc1S(=O)(=O)Nc1cccn2c(C3CCC3)nnc12 : 772

RP-LC retention time for COCCc1noc(C2Cc3ccccc3N2C(=O)NCc2ccc(OC)cc2)n1 (stereo not given) is 904

Hi there! I need RP-LC retention time for each item below, if you can.
1. Cc1ccc(F)cc1NC(=O)CSc1nc(N2CCCCC2)nc2ccccc12
2. COc1ccc(OC)c(NC(=O)CCc2c(-c3ccc(F)cc3)nc3ccccn23)c1
3. CCc1ccc(NC(=O)N2CCC(n3cnnc3C3CC3)C2)cc1 (stereo not given)

778
665
665

Could you report RP-LC retention time for every entry in the following list?
1. Clc1cccc(-c2nc(-c3ccc4c(c3)ncn4CCN3CCOCC3)no2)c1
2. COc1ccc(NC(=O)CN2CCc3[nH]c4c(C)c(Cl)ccc4c(=O)c3C2)c(OC)c1
3. COc1ccc(CNC(=O)C2CCCN(c3cnc4nccnc4c3)C2)cc1OC (stereo not given)
4. Cc1ccc2c(Nc3ccc(O)cc3)c(C(=O)OC(C)C)cnc2n1

676
656
710
640
